Some molecules, each annotated with its measured pIC50.
Target: TLR8 (Homo sapiens, UniProt Q9NR97)
Sequence (Q9NR97 27-1041): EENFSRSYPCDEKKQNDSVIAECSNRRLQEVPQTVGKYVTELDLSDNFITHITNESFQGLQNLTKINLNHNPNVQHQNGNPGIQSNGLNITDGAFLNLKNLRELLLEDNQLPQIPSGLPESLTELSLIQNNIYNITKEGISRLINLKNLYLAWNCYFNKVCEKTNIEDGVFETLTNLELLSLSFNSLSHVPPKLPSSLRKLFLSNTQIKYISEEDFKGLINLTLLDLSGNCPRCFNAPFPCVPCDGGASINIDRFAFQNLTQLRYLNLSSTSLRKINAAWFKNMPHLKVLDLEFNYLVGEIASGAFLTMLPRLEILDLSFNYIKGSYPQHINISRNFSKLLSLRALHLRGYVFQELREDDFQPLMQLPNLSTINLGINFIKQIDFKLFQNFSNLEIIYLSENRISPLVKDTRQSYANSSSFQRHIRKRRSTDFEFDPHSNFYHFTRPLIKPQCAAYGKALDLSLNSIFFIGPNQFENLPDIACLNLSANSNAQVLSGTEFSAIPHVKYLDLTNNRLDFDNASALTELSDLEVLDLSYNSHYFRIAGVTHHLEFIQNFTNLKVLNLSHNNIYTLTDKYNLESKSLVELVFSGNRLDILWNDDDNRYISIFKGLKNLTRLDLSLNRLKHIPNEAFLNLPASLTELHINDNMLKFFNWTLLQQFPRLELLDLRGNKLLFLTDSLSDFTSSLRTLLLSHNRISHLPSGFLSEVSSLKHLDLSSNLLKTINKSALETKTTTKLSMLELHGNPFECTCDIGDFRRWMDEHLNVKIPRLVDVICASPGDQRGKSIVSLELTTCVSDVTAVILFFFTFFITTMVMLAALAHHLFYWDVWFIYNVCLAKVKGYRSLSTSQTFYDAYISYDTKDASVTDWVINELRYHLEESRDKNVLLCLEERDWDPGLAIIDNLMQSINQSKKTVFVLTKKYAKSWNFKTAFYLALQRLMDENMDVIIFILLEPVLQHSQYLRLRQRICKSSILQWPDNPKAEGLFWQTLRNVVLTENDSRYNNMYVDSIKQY
Assay: HEK/293 TLR8 Cell Assay
Conditions: HEK cells, R848 agonist 30 uM final concentration, Steady-Glo readout; read-out: TLR8 potency
pIC50: −log10 of the molar value.

Record excerpt, results attached:
Molecule: C[C@@H]1CN(c2ccc(C(F)(F)F)c3ncccc23)C[C@H](CN2CCC(N3CCOCC3)CC2)O1
Tested Target: TLR8 (Homo sapiens, UniProt Q9NR97)
pIC50: > 7.12
--
Molecule: N#Cc1ccc(N2C[C@H](NC(=O)[C@@]3(F)CCNC3)C[C@H](C(F)(F)F)C2)c2cccnc12 (single isomer, unassigned)
Tested Target: TLR8 (Homo sapiens, UniProt Q9NR97)
pIC50: 6.82 to 7.12
--
Molecule: CN1CCC(F)(CNC(=O)[C@H]2CN(c3ccc(C#N)c4nccnc34)C[C@@H](C(F)(F)F)O2)CC1 (single isomer, unassigned)
Tested Target: TLR8 (Homo sapiens, UniProt Q9NR97)
pIC50: > 7.12
--
Molecule: C[C@@H]1CN(c2ccc(C#N)c3nccnc23)C[C@H](C(=O)NC2CCC(=O)NC2=O)O1 (stereo partly drawn)
Tested Target: TLR8 (Homo sapiens, UniProt Q9NR97)
pIC50: 6.82 to 7.12
--
Molecule: C[C@@H]1CN(c2ccc(C#N)c3nccnc23)C[C@H](C(=O)NCC(O)C(F)(F)F)O1 (stereo partly drawn)
Tested Target: TLR8 (Homo sapiens, UniProt Q9NR97)
pIC50: > 7.12

With those in mind, consider the next molecule.
QUERY: Item C[C@H](O)CNC(=O)[C@@H]1CN(c2ccc(C#N)c3nccnc23)C[C@H](C(F)(F)F)O1 (single isomer, unassigned) has what recorded pIC50?
RESULT: 6.82 to 7.12

====

Some compounds, each annotated with its measured pIC50.
Target: TLR8 (Homo sapiens, UniProt Q9NR97)
Assay: HEK/293 TLR8 Cell Assay
Details: HEK cells, R848 agonist 30 uM final concentration, Steady-Glo readout; read-out: TLR8 potency
pIC50: −log10 of the molar value.

Record excerpt, results attached:
Compound: C[C@@H]1CN(c2ccc(C#N)c3ncncc23)C[C@H](CNC(=O)C2(F)CCNC2)O1 (stereo partly drawn) [Example 343]
pIC50: > 7.12

Compound: C[C@H]1C[C@@H](NC(=O)CN2CCN(C)CC2)CN(c2ccc(C#N)c3ncncc23)C1 [Example 89]
pIC50: < 6.82

QUERY: Item C[C@@H]1CN(c2ccc(C#N)c3nccnc23)C[C@H](C(=O)NC[C@@H]2COCCN2C)O1 (single isomer, unassigned) [Example 264] has what recorded pIC50?
RESULT: > 7.12

QUERY: Also need C[C@@H]1CN(c2ccc(C#N)c3nccnc23)C[C@H](C(=O)NCC2CCCN2C)O1 (stereo partly drawn) [Example 245] , thanks.
RESULT: > 7.12

QUERY: Also need C[C@@H]1CN(c2ccc(C#N)c3nccnc23)C[C@H](CN2CC[C@H](O)C2)O1 [Example 220] , thanks.
RESULT: < 6.82

====

Some compounds, each annotated with its measured IC50.
Target: TLR8 (Homo sapiens, UniProt Q9NR97)
Assay: HEK/293 TLR8 Cell Assay
Conditions: HEK cells, R848 agonist 30 uM final concentration, Steady-Glo readout; read-out: TLR8 potency

Compound: C[C@@H]1CN(c2ccc(C#N)c3nccnc23)C[C@H](C(=O)NCCN2CCS(=O)(=O)CC2)O1 [Example 239]
Tested Target: TLR8 (Homo sapiens, UniProt Q9NR97)
IC50: > 0.15 µM
--
Compound: CC(C(=O)N[C@@H]1C[C@H](C(F)(F)F)CN(c2ccc(C#N)c3ncccc23)C1)N1CCN(C)CC1 (single isomer, unassigned) [Example 100]
Tested Target: TLR8 (Homo sapiens, UniProt Q9NR97)
IC50: < 0.075 µM
--
Compound: Cc1c(F)cc(N2C[C@@H](C)O[C@@H](C(=O)N[C@H]3CNC[C@H]3F)C2)c2cccnc12 [Example 298]
Tested Target: TLR8 (Homo sapiens, UniProt Q9NR97)
IC50: < 0.075 µM
--
Compound: CC(C(=O)N[C@@H]1C[C@H](C)CN(c2ccc(C#N)c3ncncc23)C1)N1CCN(C)CC1 (single isomer, unassigned) [Example 96]
Tested Target: TLR8 (Homo sapiens, UniProt Q9NR97)
IC50: > 0.15 µM
--
Compound: C[C@@H]1CN(c2ccc(C#N)c3nccnc23)C[C@H](C(=O)NC2CCNCC2(F)F)O1 (stereo partly shown) [Example 289]
Tested Target: TLR8 (Homo sapiens, UniProt Q9NR97)
IC50: < 0.075 µM
--
Compound: C[C@@H]1CN(c2cnc(C#N)c3ncccc23)C[C@H](CN2CCN(S(N)(=O)=O)CC2)O1 [Example 382]
Tested Target: TLR8 (Homo sapiens, UniProt Q9NR97)
IC50: > 0.15 µM

With those in mind, consider the next compound.
QUERY: Item COC[C@H](O)CNC(=O)[C@H]1CN(c2ccc(C#N)c3nccnc23)C[C@@H](C)O1 (single isomer, unassigned) [Example 326] has what recorded IC50?
RESULT: < 0.075 µM

====

Molecular target: TLR7 (Homo sapiens, UniProt Q9NYK1)
Sequence (Q9NYK1 27-1049): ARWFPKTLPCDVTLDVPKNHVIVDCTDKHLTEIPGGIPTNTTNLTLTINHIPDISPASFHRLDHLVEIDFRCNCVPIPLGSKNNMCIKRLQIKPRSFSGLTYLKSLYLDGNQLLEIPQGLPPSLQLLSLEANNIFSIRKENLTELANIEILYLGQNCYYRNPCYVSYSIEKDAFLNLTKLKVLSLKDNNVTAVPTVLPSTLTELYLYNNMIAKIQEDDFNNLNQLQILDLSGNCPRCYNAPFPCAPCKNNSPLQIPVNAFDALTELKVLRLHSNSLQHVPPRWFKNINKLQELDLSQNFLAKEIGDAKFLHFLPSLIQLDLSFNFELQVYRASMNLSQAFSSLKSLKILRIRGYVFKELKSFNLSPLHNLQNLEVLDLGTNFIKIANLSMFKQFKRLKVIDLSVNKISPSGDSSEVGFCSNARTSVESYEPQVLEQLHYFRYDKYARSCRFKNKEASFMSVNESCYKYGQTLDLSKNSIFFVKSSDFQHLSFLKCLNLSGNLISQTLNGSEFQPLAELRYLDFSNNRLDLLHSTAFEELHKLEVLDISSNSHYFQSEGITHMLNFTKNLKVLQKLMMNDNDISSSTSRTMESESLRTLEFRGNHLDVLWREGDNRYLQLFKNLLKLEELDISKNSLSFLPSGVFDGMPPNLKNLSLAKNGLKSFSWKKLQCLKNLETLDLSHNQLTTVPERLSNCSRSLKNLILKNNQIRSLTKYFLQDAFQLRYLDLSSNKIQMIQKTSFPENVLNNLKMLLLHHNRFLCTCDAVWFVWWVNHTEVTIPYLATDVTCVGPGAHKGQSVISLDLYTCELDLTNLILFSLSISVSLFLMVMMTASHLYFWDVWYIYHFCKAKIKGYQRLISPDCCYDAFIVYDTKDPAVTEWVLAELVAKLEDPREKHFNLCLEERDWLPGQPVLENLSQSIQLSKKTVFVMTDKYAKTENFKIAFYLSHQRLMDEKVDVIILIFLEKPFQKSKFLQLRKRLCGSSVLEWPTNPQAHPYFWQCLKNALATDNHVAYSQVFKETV
Assay: HEK/293 TLR7 Cell Assay
Conditions: TLR7/NFKb HEK cells, R848 agonist 10 uM final concentration, Steady-Glo readout; read-out: TLR7 potency
pIC50: −log10 of the molar value.
Some molecules, each annotated with its measured pIC50.

Molecule: CN1CCC(F)(CNC(=O)[C@@H]2CN(c3ccc(C#N)c4ncccc34)C[C@H](C(F)(F)F)O2)CC1 (single isomer, unassigned)
pIC50: 6.82 to 7.12

Molecule: N[C@H](CO)C(=O)N[C@@H]1C[C@H](C(F)(F)F)CN(c2ccc(C(F)(F)F)c3ncccc23)C1
pIC50: 6.82 to 7.12

Molecule: C[C@H]1C[C@@H](NCCN2CCOC2=O)CN(c2ccc(C(F)(F)F)c3nccnc23)C1
pIC50: > 7.12

QUERY: Item `N#Cc1ccc(N2C[C@H](NC(=O)[C@@H]3CCCN3)C[C@H](C(F)(F)F)C2)c2nccnc12` has what recorded pIC50?
RESULT: > 7.12

QUERY: Also need C[C@@H]1CN(c2cnc(C#N)c3ncccc23)C[C@H](CN2CCC(N)C(F)(F)C2)O1 (stereo partly shown) , thanks.
RESULT: > 7.12

QUERY: Also need `Cc1ccc(N2C[C@H](NC(=O)CC3CCN(C(C)C)CC3)C[C@H](C(F)(F)F)C2)c2cccnc12` , thanks.
RESULT: < 6.82

QUERY: Also need `CNC(=O)CCN[C@@H]1C[C@H](C)CN(c2ccc(C(F)(F)F)c3ncccc23)C1` , thanks.
RESULT: 6.82 to 7.12
